Sourced from the METLIN SMRT retention time set (Domingo-Almenara et al. 2019)

Quick reference: RP-LC retention time of the listed items.
experiment: gradient 5% acetonitrile 3 min, to 50% in 2 min, to 85% in 15 min, held 3 min, 100 µL/min; details: column: Zorbax Extend-C18 2.1 x 50 mm; eluents: water / acetonitrile, 0.1% formic acid
Numeric answer only, unit s assumed.

Looking for the measured RP-LC retention time of "CCc1nnc(NC(=O)CSc2nccn2Cc2ccc3c(c2)OCO3)s1" , can you help?
586

Report RP-LC retention time for CCn1ncc(N2CCCC(CC(=O)O)C2)cc1=O (stereo not given) please.
632

Given the compound "N#Cc1ccc(C(=O)Nc2cnc(-c3cccc(Cl)c3)nc2)cc1" , what is its reported RP-LC retention time?
1050

Can you look up the measured RP-LC retention time of "O=c1n(Cc2ccc(Cl)cc2)nc2ccc(S(=O)(=O)N3CCCCC3)cn12" for me?
1000

Suppose we examine the compound CCCCNC(=O)C1CCCN(C(=O)Nc2ccc(NC(=O)Nc3ccccc3)cc2)C1 (stereo not given) ; what RP-LC retention time value has been reported?
812

Need RP-LC retention time, item "CCn1cc(-c2ccc(Cl)cc2)cc1C(=O)N1CCC(N2CCCCC2)CC1"
713

State the recorded RP-LC retention time for this entry: "O=C(Cn1cccc1-c1nnc(C2CC2)o1)NCCc1ccc(Cl)cc1"
862

Param item = "Cc1oc(-c2[nH]ncc2C(=O)N2CCCC2)cc1S(=O)(=O)NCCCOC(C)C" ; retrieve measured RP-LC retention time.
655

What does the data say about its RP-LC retention time? Entry: "Cc1cc(C)n2c(Nc3c(C)cccc3C)c(-c3ccc(O)cc3)nc2n1"
646

# lookup: RP-LC retention time of "Cc1ccc(NC(=O)N2CCC(N3CCN(Cc4ccccn4)C(=O)C3=O)CC2)cc1"
604

---

test: gradient 5% acetonitrile 3 min, to 50% in 2 min, to 85% in 15 min, held 3 min, 100 µL/min; conditions: column: Zorbax Extend-C18 2.1 x 50 mm; eluents: water / acetonitrile, 0.1% formic acid
Entries and their RP-LC retention time
A number alone suffices; assume s.

In [3]: df
Out[3]:
                                   compound  measured_number
0  CCn1cc(CCN2CCN(S(=O)(=O)c3ccc4c(c3)CCC4)CC2)c2cccnc21              702
1  CCCN1CCN(C(=O)c2cn3ccnc(-c4ccccc4)c3n2)CC1              706
2  CC1CCN(C(=O)c2cc3c(s2)CCN(C(=O)c2ccc(Cl)cc2)C3)CC1              987
3  Cc1cc(C)cc(S(=O)(=O)Nc2ccc3nc(N4CCN(CCC#N)CC4)cc(C(=O)O)c3c2)c1              658
4  O=C(NC1CCCCCCC1)C1CCCN(C(=O)c2cc(-c3cccnc3)n[nH]2)C1 (stereo not given)              631
5  CCCN1C(=O)C(CC(=O)NC2CCCC2)Sc2ncccc21 (stereo not given)              741
6  COc1ccc(C2C(C(=O)c3cccs3)=C(O)C(=O)N2CCCN2CCOCC2)cc1OC (stereo not given)              613
7  O=C(CN1CCCc2nc(C3CC3)ncc2C1=O)NCCN1CCOCC1              554

Param item = "O=S(=O)(c1cc(-c2ccno2)cs1)N1CCN(c2ncccn2)CC1" ; retrieve measured RP-LC retention time.
843

I would be grateful if you could share the reported RP-LC retention time for "CCn1ccc2c(cc(C(=O)Nc3cc(Cl)c(OC)cc3OC)n2C)c1=O" .
810
